# TEST NAME: Tested for in vitro cytotoxic potency of compound in 9KB assay
# Type: cell-based
# DETAILS: human, KB (9KB) cells; read-out: ED50 (the source's name)
MEASURED ATTRIBUTE: CC50 (µg/mL)
# unit: µg/mL | format: bare number

Give recorded CC50. COc1ccc2c(c1)[C@@]1(C)CC[C@@H](O2)C12CC2
26
